Reference for the values: ChEMBL document CHEMBL4325903

Measured selectivity ratio values are reported for all entries that follow.
- test_method_notes: Selectivity index, ratio of IC50 for cytotoxicity against African green monkey Vero cells to IC50 for chloroquine-sensitive Plasmodium falciparum D6
- Format: toxicity, cell-based
- condition_label: read-out: Ratio IC50

Worked cases, selectivity ratio given:
- Cc1cc(N2CCCCC2)nc(N(CCCNc2ccnc3cc(Cl)ccc23)Cc2ccccn2)n1: > 7.9
- Cc1cc(N(CCNc2ccnc3cc(Cl)ccc23)Cc2ccccn2)nc(N2CCCCC2)n1: > 151
- Cc1cc(N2CCN(C)CC2)nc(N(CCNc2ccnc3cc(Cl)ccc23)Cc2ccccn2)n1: > 238
- Cc1cc(Cl)nc(N(CCCNc2ccnc3cc(Cl)ccc23)Cc2ccccn2)n1: > 6.3

Next:
query: Input Cc1cc(Cl)nc(N(CCNc2ccnc3cc(Cl)ccc23)Cc2ccccn2)n1 , output reported selectivity ratio.
result: 23.2
